Provide the recorded Plant response rating (0 to 100 scale), Pigweed for the entries that follow.
# Tested on: pigweed (Amaranthus retroflexus)
# Assay info: Test A preemergence, directed soil spray, visual injury rating
# Assay type: in vivo
# Condition info: 500 g ai/ha, 0 is no effect, 100 is complete control

Query :: # query: Plant response rating (0 to 100 scale), Pigweed | item CCc1sc2ncccc2c1-c1c(O)c(C)nn(C)c1=O | system: pigweed (Amaranthus retroflexus)
Result :: 10

Query :: # query: Plant response rating (0 to 100 scale), Pigweed | item Cc1cnc2sc(C)c(-c3c(OC(=O)C4CC4)c(C)nn(C)c3=O)c2c1 | system: pigweed (Amaranthus retroflexus)
Result :: 30

Query :: # query: Plant response rating (0 to 100 scale), Pigweed | item Cc1nn(C)c(=O)c(-c2c(C)sc3ncccc23)c1OC(=O)C1CC1 | system: pigweed (Amaranthus retroflexus)
Result :: 0

Query :: # query: Plant response rating (0 to 100 scale), Pigweed | item Cc1nc2c(-c3c(O)c(C)nn(C)c3=O)cccc2s1 | system: pigweed (Amaranthus retroflexus)
Result :: 0

Query :: # query: Plant response rating (0 to 100 scale), Pigweed | item CCOC(=O)Oc1c(C)nn(C)c(=O)c1-c1cccc2sccc12 | system: pigweed (Amaranthus retroflexus)
Result :: 100

Query :: # query: Plant response rating (0 to 100 scale), Pigweed | item COc1ncc(-c2c(O)c(C)nn(C)c2=O)c2ccccc12 | system: pigweed (Amaranthus retroflexus)
Result :: 100

Query :: # query: Plant response rating (0 to 100 scale), Pigweed | item CCOC(=O)Oc1c(C)nn(C)c(=O)c1-c1c(CC)sc2ncccc12 | system: pigweed (Amaranthus retroflexus)
Result :: 20

Data credit: patent US10750743B2
